src = PubChem BioAssay (NCI)

# methodNotes: NCI Yeast Anticancer Drug Screen. Data for the sgs1 mgt1 strain (AID 161);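 further: 0% = growth of cultures given vehicle only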
# assayContext: S. cerevisiae sgs1 mgt1 strain, at 50.0 µM
The panel holds about 79,000 compounds, 15% with a hit somewhere; the sample as a whole holds those more often. The source made the active and inactive calls. No stated cut-off is given here; in the data, active means growth inhibition above about 70%; inactive means the rest.
Please state which outcome applies, choosing from true (1) = active, false (0) = inactive

Worked set:
## Task Could you kindly confirm the outcome this assay logged for `Cc1cc(=O)[nH]c2cc3oc4ccccc4c3cc12` ?
## Result false (0)

## Task Hi, do you know how `C/C(O)=C(/C=N/C(=S)Nc1ccc(S(N)(=O)=O)cc1)C(=O)Nc1ccccc1C` came out in this test?
## Result false (0)

## Task Test call for this compound, please: O=C1CCC(C(c2ccccc2)(c2ccccc2)c2ccccc2)CC1=O (stereo not drawn)
## Result false (0)

## Task Write down the call the test reported for this compound. Item: `CCOC(=O)c1sc2[n+](c1C)C(=O)/C(=C/c1ccc([N+](=O)[O-])cc1)S2`
## Result true (1)

## Task Could you check what this test reported for `CN(C)N=Nc1c(-c2cccs2)n[nH]c1C(F)(F)F` ?
## Result true (1)

Further cases:
## Task Could you check what this test reported for `CC(=O)N1c2ccccc2Sc2ccc3ccc(C(=O)CCl)cc3c21` ?
## Result true (1)

## Task Per the assay record, what outcome was assigned to NC(=O)NOCC1NC(=O)NC1=O (stereo not drawn) ?
## Result false (0)

## Task I'd appreciate the recorded outcome for `Nc1c(/C=C/c2cc3ccc(C4=NCCN4)cc3[nH]2)[nH]c2cc(C3=NCCN3)ccc12` from this test.
## Result true (1)

## Task Look up the recorded call for `Fc1ccc(NC2=NCCN=C(Nc3ccc(F)cc3)SS2)cc1` in this test.
## Result true (1)

## Task Hi, sorry to bother you, what did the test record for CC(C)C(Sc1nc(-c2ccccc2)c(-c2ccccc2)[nH]1)c1n[nH]c(=S)n1-c1ccccc1 (stereo not drawn) ?
## Result true (1)

## Task Hey, what did the test say about `COC(=O)c1ccc2ccccc2c1` ?
## Result false (0)

## Task I would be grateful if you could indicate the recorded call for `Cc1[nH]n(C(N)=S)c(=O)c1N=Nc1ccc([N+](=O)[O-])cc1` .
## Result true (1)

## Task Any idea what this test logged for N#CC(C(=O)C(=O)Nc1ccc(Cl)c(Cl)c1)c1c(Cl)cccc1Cl (stereo not drawn) ?
## Result false (0)

## Task For `COc1cc(Nc2ccc(O)cc2)c2ncccc2c1` , which call appears in the assay record?
## Result true (1)

## Task Hi, do you know how COC(=O)C(O)(/C(=N\O)c1ccccc1)c1ccccc1 (stereo not drawn) came out in this test?
## Result false (0)

## Task I would be grateful if you could indicate the recorded call for `COc1cc(O)c2c(=O)c3cccc(C)c3[nH]c2c1` .
## Result false (0)

## Task Assay result, entry `CCCNC(=S)N/N=C(/C)c1nccc2ccccc12` — outcome?
## Result true (1)

## Task So what was the verdict on COc1cc(C2C=C(c3ccccc3)Oc3cc4c(cc32)OCO4)cc(OC)c1OC (stereo not drawn) in this test?
## Result false (0)

## Task Could you check what this test reported for CCN(CC)CC(O)c1ccc(/C=C/c2ccc(Cl)cc2)cc1 (stereo not drawn) ?
## Result false (0)

## Task Call for entry CCC(C)C(C(=O)NOC(=O)c1ccccc1)/C(N)=N/OC(=O)c1ccccc1 (stereo not drawn) :
## Result true (1)

## Task Per the assay record, what outcome was assigned to CCOC(=O)C(Br)C(Br)c1cccc(Cl)c1 (stereo not drawn) ?
## Result true (1)

## Task So what was the verdict on `O=C(CN1CCCCC1)c1ccc(/C=C/c2ccc(Cl)cc2)cc1` in this test?
## Result true (1)

## Task Hi, sorry to bother you, what did the test record for `COc1ccc(/C=C2/C(=O)N(C(=O)c3ccccc3O)N=C2C)cc1OC` ?
## Result false (0)

====

# methodNotes: NCI Yeast Anticancer Drug Screen. Data for the mec2-1 strain (AID 157)
# assayContext: S. cerevisiae mec2-1 strain, at 5.0 µM (retest, dose inferred, filed as 0.5), hits give high values
The panel holds about 79,000 compounds, 15% with a hit somewhere; the sample as a whole holds those more often.
assayReadout: growth inhibition (%)
Please reply with the bare figure in % and do not write the unit itself.

Example entries and their recorded answers appear below.
## Task Any idea what growth inhibition was measured for `COc1ccc2nc3cc(Cl)ccc3c(NCCCCCCNc3c4ccc(Cl)cc4nc4ccc(OC)nc34)c2n1` ?
## Result 6

## Task Bench note: what growth inhibition did `COc1ccc(N=Cc2ccccc2O)cc1` show?
## Result 0

---
## Task What value of growth inhibition has been recorded for this entry: C[C@]12CC[C@H](O)CC1=CC[C@@H]1C2CC[C@]2(C)C(=O)N(N)C(=O)CC12 (stereo partly specified)
## Result -24

## Task GET /values?readout=growth inhibition&item= `O=Cc1c(O)ccc2ccccc12.[Cu+2]`
## Result -2

## Task Entry `Cc1cccc2c(CC(=O)O)cccc12` : reported growth inhibition = ?
## Result 7

## Task growth inhibition for `C/C(=N/NC(=S)Nc1ccc(C)cc1)c1ccccn1` ?
## Result 33

## Task What value of growth inhibition has been reported for the following molecule? `Clc1ccc(Cc2nc3ccccc3s2)c(Cl)c1`
## Result 36

## Task # get_value(readout='growth inhibition', item= `O=C(Cc1nc2ccccc2s1)Nc1cccc(C(F)(F)F)c1` )
## Result 39

## Task Quick one: growth inhibition of `C[C@]12CC[C@H](O)C[C@@H]1CC[C@@H]1[C@@H]2CC[C@]2(C)[C@@H](c3cc(C(F)(F)F)n[nH]3)CC[C@@H]12` ?
## Result 3

## Task Item under review: CC12CCC(O)CC1=CCC1C2CCC2(C)/C(=C\C#N)CCC12 (stereo unspecified) . Reported growth inhibition?
## Result 5

## Task Can you look up the measured growth inhibition of CC(=O)OCC1OC(n2ncc3c(Sc4c([N+](=O)[O-])ncn4C)ncnc32)C(OC(C)=O)C1OC(C)=O (stereo unspecified) for me?
## Result 25

====

# methodNotes: NCI Yeast Anticancer Drug Screen. Data for the bub3 strain (AID 167)
# assayContext: S. cerevisiae bub3 mutant strain, at 5.0 µM (retest, dose inferred, filed as 0.5)
This is part of a sample that, as a whole, favours compounds with a hit. Of some 79,000 tested, about 15% had one in any assay. Calls of active or inactive are those of the source. Rule as the data show it: active = growth inhibition above about 70%; inactive = the rest.
Choose the fitting class; nothing outside active, inactive is accepted.

Use these answered entries as a reference point.
## Task GET /call?item= `CC(C)SC(=S)Nc1cc(C(F)(F)F)ccc1Cl` returns the recorded outcome of this test.
## Result inactive

## Task Please share the test call associated with CC(C)C(Br)CC/C(CBr)=C(\Cl)CCl (stereo unspecified) .
## Result inactive

## Task I'd appreciate the recorded outcome for `O=CCCCc1cc2c(cc1Br)CCC2` from this test.
## Result inactive

Next:
## Task Could you kindly confirm the outcome this assay logged for `Cc1cc(N2C(=O)CSC2=S)c([N+](=O)[O-])cc1C` ?
## Result inactive

## Task Dear colleague, could you share the recorded outcome for `C/C(=N\NC(=S)N(C)C)c1cccnn1` when you have a moment?
## Result active

## Task What did this assay record as the result for `Cc1ccc(/C=C/C(=O)/C=C/c2ccc(C)o2)o1` ?
## Result inactive

## Task Hi, do you know how `Cc1cccc2c(Nc3ccc(NS(C)(=O)=O)cc3)c3ccccc3nc12` came out in this test?
## Result inactive

## Task Given `CSC(=S)N/N=C/c1cccc(C)n1` , state the outcome it received in this test.
## Result inactive

## Task Status in this test for CCOC(=O)C1CC2(CCC1N)c1ccccc1-c1ccccc12 (stereo unspecified) ?
## Result inactive

## Task # fetch the recorded call for CCCCCCCCCCN(CCCCCCCCCC)C1CC(OC2CC(O)(C(O)CO)Cc3c(O)c4c(c(O)c32)C(=O)c2c(OC)cccc2C4=O)OC(C)C1O (stereo unspecified) here
## Result inactive

## Task Which outcome was assigned to `O=C1C=C/C(=C(/c2ccc(O)c(O)c2)c2ccccc2S(=O)(=O)O)C=C1O` in this test?
## Result inactive

====

# methodNotes: NCI Yeast Anticancer Drug Screen. Data for the sgs1 mgt1 strain (AID 161);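 further: 0% = growth of cultures given vehicle only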
# assayContext: S. cerevisiae sgs1 mgt1 strain, at 50.0 µM (retest, dose inferred, filed as 5.0)
The panel holds about 79,000 compounds, 15% with a hit somewhere; the sample as a whole holds those more often. Calls of active or inactive are those of the source. No stated cut-off is given here; in the data, active means growth inhibition above about 70%; inactive means the rest.
Parameter call: string, one of active, inactive

Some entries whose results are on file:
## Task Per the assay record, what outcome was assigned to `O=c1c2ccccc2c2ccccc2n1O` ?
## Result active

## Task Identify the outcome logged in this assay for the compound shown: O=C(OCC1CCCO1)N(c1ccccc1)c1ccccc1 (stereo unspecified)
## Result inactive

## Task Kindly provide the recorded test outcome for the following compound: Clc1ccc(C2SCc3nc4ccccc4n32)cc1Cl (stereo unspecified)
## Result active

## Task How did this test come out for `C[N+](C)([O-])CCC=C1c2ccccc2CCc2ccccc21` ?
## Result inactive

## Task Please share the test call associated with `CCOC(=O)OCCSCCOC(=O)OCC` .
## Result inactive

## Task Given `CN(C)CC(CN(C)C)C(=O)c1ccc2c(c1)OCO2` , state the outcome it received in this test.
## Result inactive

Further cases:
## Task Which outcome was entered for the compound `COc1cc(C2C(C(=O)Nc3ccc(Cl)c(Cl)c3)=C(C)NC(C)=C2C(=O)Nc2ccc(Cl)c(Cl)c2)ccc1O` in this test?
## Result inactive

## Task Returns: the outcome recorded for NC(=O)NOCC1NC(=O)NC1=O (stereo unspecified) in this assay.
## Result inactive

## Task Field: outcome | Entry: `Nc1nnc(Cc2ccc(Br)cc2)o1`
## Result inactive

## Task Please state the recorded outcome for this compound: COC(OC)C1C2C3C=CC(C4C(=O)OC(=O)C34)C12 (stereo unspecified)
## Result inactive

## Task Which outcome was entered for the compound `CC(C)(C)c1ccc(C(=O)n2c(=S)oc3ccc(Cl)cc32)cc1` in this test?
## Result active

## Task Tell me the assay call for `C/C(=N\NC(=S)N1CCN(c2cnccn2)CC1)c1ccccn1` please.
## Result active

## Task Outcome logged for `COC(=O)c1nc(N)nc(C(=O)OC)c1C(=O)c1ccccc1` in this assay:
## Result inactive

## Task Which outcome was assigned to `Cc1csc2[n+]1C(=O)/C(=C\c1ccc([N+](=O)[O-])cc1)S2` in this test?
## Result active
